Origin of the recorded values: patent US5298502A

# System: DBA/2 Ha mice with SMT-F subcutaneous tumors
# run description: Proto IX content of tissues of tumor-bearing mice fed the agent (Example 6)
# Type: in vivo
# cond: 2000 ppm in feed Days 2-10, sacrificed Day 10 (6j Day 7)
recorded endpoint: Proto IX Mean Cps per gram, Adrenal (Cps per gram × 10^3)
Give the value in Cps per gram × 10^3 but do not write Cps per gram × 10^3 after it.

State the recorded Proto IX Mean Cps per gram, Adrenal for this entry: `C#CCN1C(=O)COc2cc(F)c(N=c3sc(=S)n4n3CCCC4)cc21`
491

Then what about the compound `Cc1nn(-c2cc(NS(C)(=O)=O)c(Cl)cc2Cl)c(=O)n1C(F)F` ?
13790
